test system: P12-Ichikawa; assay: cell viability relative to DMSO control; higher = less cytotoxic; settings: RPMI 5 mM glucose + 10% dialyzed FBS; 48 h; 1.71 µM
MEASURE: cell viability (%)
Field: numeric (%). Do not append units.

Study these solved cases before continuing.
CC1(C)CCC(C)(C)c2cc(NC(=O)c3ccc(C(=O)O)cc3)ccc21: 108
Clc1ccc(CCC(Cn2ccnc2)Sc2c(Cl)cccc2Cl)cc1 (centres undefined): 83.7
Nc1cc(N2CCCCC2)nc(N)[n+]1[O-]: 129
C/C=C(\C)C(=O)N[C@@H](c1ccccc1)[C@@H](O)C(=O)O[C@H]1C[C@@]2(O)[C@@H](OC(=O)c3ccccc3)[C@@H]3[C@]4(OC(C)=O)CO[C@@H]4C[C@H](O)[C@@]3(C)C(=O)[C@H](OC(C)=O)C(=C1C)C2(C)C: 28.5
COc1cccc(N(C)C(=S)Oc2ccc3c(c2)CCCC3)n1: 92.1

Using the record for `NC[C@H](O)c1ccc(O)c(O)c1` , report its cell viability. 93.6
